systemTested: T1, CD38 on the surface of Daudi cells (human, UniProt P28907 1-300)
T1 construct: whole, on cells
procedureDetails: flow cytometry, Daudi cells;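 note: purified antibodies incubated with Daudi cells for 1 h at 4 °C, bound antibody detected by fluorescent secondary antibody and read by flow cytometry as MFI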
Below, each of the binders is paired with its reported Max Binding MFI value.
Just the number please, in MFI, no unit attached.

Please review the entries below; each comes with its answer.
>  <binder>
25E4 (antibody, human IgG1, kappa, V domains shown, Rabbit-human chimeric anti-CD38: rabbit VH and VL on human IgG1 and kappa constant regions) VH: QSLEESGGRLVTPGTPLTLTCTVSGIDLSIYTMAWVRQAPGKGLEYIGIISGYGTTYYATWAKGRFIVSKTSTTVDLKITSPTTEDTATYFCVRTTVQSTDLWGPGTLVTVSS VL: DIVMTQTPASVEAAVGGTVTINCQASQNIYSNLAWYQQKPGQRPKLLIYKASTLASGVSSRFKGSGSGTEFTLTISDLASADAATYYCQSYYGATSSSFGYGFGGGTEVVVKR

>  <reportedMeasurement>
859

$$$$
>  <binder>
26D4 (antibody, human IgG1, kappa, V domains shown, Rabbit-human chimeric anti-CD38: rabbit VH and VL on human IgG1 and kappa constant regions) VH: QEQLEESGGDLVKPEGSLTLTCTASGFSFSNDAICWVRQAPGKGLEWIACIYAGSGNTYYASWAKGRFSISKTSSTTVTLQMTSLTVADTATYFCASADTIDYFNLWGPGTLVTVSS VL: AQVLTQTPSPVSAAVGGTVTINCQASQSVYNNNYLAWYQQKPGQPPKLLIYRASNLASGVPSRFSASGSGTQFTLTISEVQSDDAATYYCQAYYRDPTTAFGGGTEVVVKR

>  <reportedMeasurement>
577

$$$$
>  <binder>
25F12 (antibody, human IgG1, kappa, V domains shown, Rabbit-human chimeric anti-CD38: rabbit VH and VL on human IgG1 and kappa constant regions) VH: RSLEESGGRLVTPGTPLTLTCTTSGFSLSSYDMSWVRQAPGKGLEWIGYITYGGNIYYATWAKGRFTTSKTSTTVDLKITSPTTEDTATYFCARTLYTGGRYYFSLWGPGTLVTVSS VL: AQVLTQTPSSVSAVVGGTVTINCQSSQSIANSNEVAWYQQKLGQPPKLLIYDASTLASGVPSRFSGSGSGTQFTLIISGVQSDDAATYYCQGTVYDNVWYAAFGGGTEVVVKR

>  <reportedMeasurement>
1030

$$$$
>  <binder>
25C3 (antibody, human IgG1, kappa, V domains shown, Rabbit-human chimeric anti-CD38: rabbit VH and VL on human IgG1 and kappa constant regions) VH: QEQLEESGGDLVKPGASLTLTCKASGFSFSSAYDMCWVRQAPGKGLEWVACLYTVSSDSIYYASWAKGRFTISRTSSTTVTLQMTSLTAADTATYFCARDGDYFALWGPGTLVTVSS VL: DIVMTHTPASVEAAVGGTVTIKCQASQNIGGYLSWYQQKPGQRPKLLIYRASTLASGVPSRFKGSGSGTQFTLTISDLESADAATYYCQTYYYSGSSRYWAFGGGTEVVVKR

>  <reportedMeasurement>
1180

$$$$

Here is another binder to look at.
Consider the binder 1E2 (antibody, human IgG1, kappa, V domains shown, Rabbit-human chimeric anti-CD38: rabbit VH and VL on human IgG1 and kappa constant regions) VH: QSVEESGGRLVTPGTPLTLTCTVSGIDLNSYAMGWVRQAPGKGLKYIGIMTSGGNIYYANWAKGRFTISKTSTTVDLRITSPTTEDTATYFCAREREFYGGGTSGSRLDLWGQGTLVTVSS VL: AYDMTQTPASVEAAVGGTVTIKCQASQSIYNFLNWYQQKPGQPPKLLIYYASTLAFGVPSRFKGSGSGTEYTLTISGVESADAATYYCQQGWNSGILDNSFGGGTEVVVKR . State its measured Max Binding MFI.
2130
